The measured values listed here are drawn from patent US20140011738A1.

# testedOn: glucagon receptor (UniProt P47871 26-477, limits assumed)
# Sequence (P47871 26-477 limits assumed): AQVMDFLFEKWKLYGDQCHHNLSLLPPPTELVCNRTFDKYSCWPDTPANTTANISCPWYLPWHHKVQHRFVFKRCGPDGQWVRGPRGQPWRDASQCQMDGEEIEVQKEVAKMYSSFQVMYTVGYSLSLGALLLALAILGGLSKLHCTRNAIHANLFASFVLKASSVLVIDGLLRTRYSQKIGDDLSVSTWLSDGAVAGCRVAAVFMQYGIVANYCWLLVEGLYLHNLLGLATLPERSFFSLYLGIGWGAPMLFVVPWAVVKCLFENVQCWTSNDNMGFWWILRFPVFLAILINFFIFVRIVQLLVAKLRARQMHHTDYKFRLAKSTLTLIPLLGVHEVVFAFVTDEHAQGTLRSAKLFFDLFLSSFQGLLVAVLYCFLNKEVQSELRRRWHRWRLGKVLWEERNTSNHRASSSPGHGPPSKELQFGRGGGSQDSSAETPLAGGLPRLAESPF
# assayProtocol: cell-based or functional assay
*1 amine or outer side, *2 acyl side, *3 side chain or, on linkers, in order; H or OH if unused. Where no end group is shown, it is not given here. Side-chain parts run from the residue outwards. [ ]: non-standard residue; d: D form. The star is where a group is joined. γGlu = O=C(O)[C@H](CCC(=O)[*:2])N[*:1]; Palmitoyl = CCCCCCCCCCCCCCCC(=O)*; Aib = CC(C)(N)C(=O)O
Reported EC50 at Glucagon Receptor values are given for each entry in this list.
State just the number; it will be interpreted in pM.

// known answers, use as guide
H[Aib]QGTFTSDYAKYLDERAAQDFVQWLLDGGPSSGAPPPSK([γGlu-γGlu-Palmitoyl])G-NH2 [peptide of SEQ ID NO: 17] = 19
H[Aib]QGTFTSDYSKYLEERAAQDFVQWLLDGGPSSGAPPPSK([γGlu-γGlu-Palmitoyl])G-NH2 [peptide of SEQ ID NO: 15] = 5
H[Aib]QGTFTSDYSKYLDERAAQDFVQWLLDGGPSSGAPPPSK([γGlu-γGlu-Palmitoyl])G-NH2 [peptide of SEQ ID NO: 11] = 4
H[Aib]QGTFTSEYSKYLDERAAQDFVQWLLDGGPSSGAPPPSK([γGlu-γGlu-Palmitoyl])G-NH2 [peptide of SEQ ID NO: 16] = 28

# evaluate next
Input line: Quote EC50 at Glucagon Receptor reported for H[Aib]QGTFTSDK([γGlu-Palmitoyl])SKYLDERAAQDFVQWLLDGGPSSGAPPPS-NH2 [peptide of SEQ ID NO: 10] please.
Output line: 4
